- Test system: S. cerevisiae NKY1551 his4x/his4B, sporulating
- Assay Protocol: HIS4 meiotic recombination assay sensitivity score (z-score vs DMSO controls); higher = stronger inhibition of sporulation/recombination, active = hit call of the paper;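 active = HIS4 sensitivity z-score above 5 vs DMSO controls; inactive = score 5 or below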
Where a name gives a salt, the structure may show the parent alone.
Permitted responses: True (active), False (inactive)

CCCc1nc(C)c2c(=O)nc(-c3cc(S(=O)(=O)N4CCN(CC)CC4)ccc3OCC)[nH]n12 [Vardenafil citrate] (stock concentration (mM, diluted 1:100): 7.2)
False
O=C1CN2Cc3c(ccc(Cl)c3Cl)N=C2N1 [Anagrelide hydrochloride] (stock concentration (mM, diluted 1:100): 8.8)
False
CCOC(=O)[C@H](CCc1ccccc1)N[C@@H](C)C(=O)N1[C@H](C(=O)O)C[C@@H]2CCC[C@@H]21 [Ramipril] (stock concentration (mM, diluted 1:100): 10)
False
CC(=O)[C@H]1CC[C@H]2[C@@H]3CCC4=CC(=O)CC[C@]4(C)[C@H]3CC[C@]12C [Progesterone] (stock concentration (mM, diluted 1:100): 10)
True

Input: Entry Nc1nc(O)c2ncn(CCC(CO)CO)c2n1 [Penciclovir] (stock concentration (mM, diluted 1:100): 10) : call = ?
Output: False

Input: // param item: CN1CCN2c3ncccc3Cc3ccccc3C2C1 (stereo unspecified) [Mirtazapine] (stock concentration (mM, diluted 1:100): 10) ; yields the recorded call
Output: False

Input: Each compound tested received a call. Report the one for CC(=O)O[C@H]1C[C@@H]2CC[C@@H]3[C@H](CC[C@@]4(C)[C@H]3C[C@H]([N+]3(C)CCCCC3)[C@@H]4OC(C)=O)[C@@]2(C)C[C@@H]1N1CCCCC1 [Vecuronium bromide] (stock concentration (mM, diluted 1:100): 10) .
Output: False

Input: Hi, do you know how COc1cc2nc(N(C)CCCNC(=O)C3CCCO3)nc(N)c2cc1OC (stereo unspecified) [Alfuzosin] (stock concentration (mM, diluted 1:100): 10) came out in this test?
Output: False

Input: So what was the verdict on O=C1C(c2c(O)[nH]c3ccccc23)=Nc2ccccc21 [Indarubicin] (stock concentration (mM, diluted 1:100): 10) in this test?
Output: False

Input: Assay result, entry Cc1ncc([N+](=O)[O-])n1CC(O)CCl (stereo unspecified) [Ornidazole] (stock concentration (mM, diluted 1:100): 10) — outcome?
Output: False

Input: How did this test come out for COc1ccc(/C=C/C(=O)Nc2ccccc2C(=O)O)cc1OC [Tranilast] (stock concentration (mM, diluted 1:100): 10) ?
Output: False
